Source listed as patent EP4667458A1.

Please respond with reported pIC50 for every item in the list.
- experimentalSystem: KRAS^G12C::SOS1 (Homo sapiens)
- measurementNotes: KRAS G12C::SOS1 protein-protein interaction (PPI) inhibition assay (HTRF binding kit)
pIC50: −log10 of the molar value.

Query: Would you mind telling me what pIC50 value was observed for C[C@@H](NC(=O)c1ccc(=O)n(-c2ccccc2F)n1)c1cccc(F)c1Cl ?
Result: < 5.00

Query: Same question, COc1ccc(F)c(-n2cc(C(=O)N[C@H](C)c3cccc(C(F)(F)CO)c3F)ccc2=O)c1 this time
Result: > 6.00

Query: Same question, C[C@@H](NC(=O)c1ccc(=O)n(-c2ccccc2F)c1)c1cc(N)cc(C(F)(F)F)c1 this time
Result: > 6.00

Query: Same question, COc1ccc(-n2nc(C(=O)N[C@H](C)c3cccc(C(F)(F)CO)c3F)ccc2=O)c(OC)c1 this time
Result: > 6.00

* * *

- experimentalSystem: KRAS^G12C::SOS1 (Homo sapiens, UniProt Q07889)
- Sequence (Q07889 whole entry, stated change not applied): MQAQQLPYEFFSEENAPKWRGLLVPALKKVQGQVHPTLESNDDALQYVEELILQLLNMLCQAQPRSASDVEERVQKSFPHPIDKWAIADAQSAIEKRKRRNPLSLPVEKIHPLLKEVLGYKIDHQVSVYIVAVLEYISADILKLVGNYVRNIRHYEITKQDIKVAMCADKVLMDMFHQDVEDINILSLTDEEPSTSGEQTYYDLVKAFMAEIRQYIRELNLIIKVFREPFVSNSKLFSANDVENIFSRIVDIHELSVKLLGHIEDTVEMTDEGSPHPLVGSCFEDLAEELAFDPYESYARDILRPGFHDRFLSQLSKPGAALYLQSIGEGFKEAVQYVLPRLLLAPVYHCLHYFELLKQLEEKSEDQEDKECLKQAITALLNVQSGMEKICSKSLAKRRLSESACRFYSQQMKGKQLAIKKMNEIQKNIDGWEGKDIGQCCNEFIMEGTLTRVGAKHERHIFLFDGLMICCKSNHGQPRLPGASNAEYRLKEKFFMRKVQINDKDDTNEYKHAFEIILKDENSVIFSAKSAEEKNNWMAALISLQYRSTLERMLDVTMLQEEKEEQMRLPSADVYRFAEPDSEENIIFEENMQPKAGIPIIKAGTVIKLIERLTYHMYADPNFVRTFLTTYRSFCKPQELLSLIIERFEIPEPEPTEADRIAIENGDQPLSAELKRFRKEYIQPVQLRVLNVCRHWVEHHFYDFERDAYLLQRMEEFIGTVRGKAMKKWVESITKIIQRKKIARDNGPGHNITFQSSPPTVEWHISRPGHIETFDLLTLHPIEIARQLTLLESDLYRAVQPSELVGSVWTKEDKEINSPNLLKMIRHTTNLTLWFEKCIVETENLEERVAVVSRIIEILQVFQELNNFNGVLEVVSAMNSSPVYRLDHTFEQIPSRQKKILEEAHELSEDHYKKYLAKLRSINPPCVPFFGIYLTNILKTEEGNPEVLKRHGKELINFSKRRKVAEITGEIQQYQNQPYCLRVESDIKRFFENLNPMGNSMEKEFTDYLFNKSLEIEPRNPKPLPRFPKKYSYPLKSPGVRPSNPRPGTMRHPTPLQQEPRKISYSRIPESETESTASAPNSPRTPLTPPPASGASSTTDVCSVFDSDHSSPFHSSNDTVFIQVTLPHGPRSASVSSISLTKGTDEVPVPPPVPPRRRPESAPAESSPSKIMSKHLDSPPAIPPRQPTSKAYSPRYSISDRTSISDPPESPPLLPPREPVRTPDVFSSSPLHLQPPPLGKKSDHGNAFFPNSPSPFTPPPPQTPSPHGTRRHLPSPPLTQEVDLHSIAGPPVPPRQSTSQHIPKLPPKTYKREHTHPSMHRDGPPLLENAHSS
- measurementNotes: KRAS G12C::SOS1 protein-protein interaction (PPI) inhibition assay (HTRF binding kit)
pIC50: −log10 of the molar value.
experimentalReadout: pIC50

Query: Would you mind telling me what pIC50 value was observed for C[C@@H](NC(=O)c1ccc(=O)n(-c2cccc(S(C)(=O)=O)c2)c1)c1cc(N)cc(C(F)(F)F)c1 ?
Result: > 6.00

Query: Same question, C[C@@H](NC(=O)c1ccc(=O)n(-c2cccc(-c3cnco3)c2)n1)c1cc(N)cc(C(F)(F)F)c1 this time
Result: > 6.00

Query: Same question, C[C@@H](NC(=O)c1ccc(=O)n(-c2ccccc2F)n1)c1cccc(-n2ccccc2=O)c1 this time
Result: < 5.00

Query: Same question, CCNCc1ccc(F)cc1-c1ccc([C@@H](C)NC(=O)c2ccc(=O)n(-c3cccnc3F)n2)s1 this time
Result: > 6.00

Query: Same question, C[C@@H](NC(=O)c1ccc(=O)n(-c2cccc(-c3ncnn3C)c2)n1)c1cc(N)cc(C(F)(F)F)c1 this time
Result: > 6.00

Query: Same question, C[C@@H](NC(=O)c1ccc(=O)n(-c2c(F)cccc2F)n1)c1cccc(C(F)(F)CO)c1F this time
Result: 5.00 to 6.00

Query: Same question, C[C@@H](NC(=O)c1ccc(=O)n(-c2cccc(-c3nccs3)c2)n1)c1cccc(C(F)(F)CO)c1F this time
Result: > 6.00

Query: Same question, C[C@@H](NC(=O)c1ccc(=O)n(-c2cccnc2F)n1)c1cccc(C(F)(F)CO)c1F this time
Result: > 6.00

Query: Same question, Cc1cc(C(=O)N[C@H](C)c2cc(N)cc(C(F)(F)F)c2)nn(-c2ccccc2)c1=O this time
Result: > 6.00

Query: Same question, C[C@@H](NC(=O)c1ccc(=O)n(-c2cccc(-c3ccn(C)n3)c2)n1)c1cc(N)cc(C(F)(F)F)c1 this time
Result: > 6.00

Query: Same question, CNCc1ccc(C#N)cc1-c1ccc([C@@H](C)NC(=O)c2ccc(=O)n(-c3ccccc3F)n2)s1 this time
Result: > 6.00

Query: Same question, COc1ccc(-n2nc(C(=O)N[C@H](C)c3cccc(C(F)(F)CO)c3F)c(C3CC3)cc2=O)c(F)c1 this time
Result: 5.00 to 6.00

Query: Same question, C[C@@H](NC(=O)c1ccc(=O)n(-c2ncccc2F)n1)c1cc(N)cc(C(F)(F)F)c1 this time
Result: < 5.00

Query: Same question, CNCc1cc(F)ccc1-c1ccc([C@@H](C)NC(=O)c2ccc(=O)n(-c3ccccc3F)c2)s1 this time
Result: > 6.00

Query: Same question, CNCc1ccccc1-c1ccc([C@@H](C)NC(=O)c2nn(-c3cnn(C)c3)c(=O)c3cc[nH]c23)s1 this time
Result: > 6.00

* * *

Please respond with reported IC50 for every item in the list.
- experimentalSystem: SOS1 (Homo sapiens, UniProt Q07889)
- Construct: adding equal amounts of HIS-SOS1cat (160 nM; Cytoskeleton, US); His; purchased Cytoskeleton, US
- Sequence (Q07889 564-1049 limits assumed): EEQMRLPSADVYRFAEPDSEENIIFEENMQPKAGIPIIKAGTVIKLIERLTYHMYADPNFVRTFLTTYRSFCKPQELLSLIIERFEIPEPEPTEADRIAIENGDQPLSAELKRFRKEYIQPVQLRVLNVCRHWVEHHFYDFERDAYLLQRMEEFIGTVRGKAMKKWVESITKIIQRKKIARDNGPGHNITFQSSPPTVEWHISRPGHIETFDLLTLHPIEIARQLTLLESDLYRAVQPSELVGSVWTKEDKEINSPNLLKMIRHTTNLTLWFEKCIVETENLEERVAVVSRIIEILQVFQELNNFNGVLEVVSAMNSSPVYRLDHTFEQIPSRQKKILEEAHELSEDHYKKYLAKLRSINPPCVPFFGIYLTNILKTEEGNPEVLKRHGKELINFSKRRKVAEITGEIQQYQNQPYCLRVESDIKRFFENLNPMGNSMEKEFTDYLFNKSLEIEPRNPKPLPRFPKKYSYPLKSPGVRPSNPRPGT
- measurementNotes: SOS-catalyzed nucleotide exchange assay (HTRF, SOS1-mediated GTP loading of KRAS G12D)
- Assay type: biochemical
- conditionDetails: GST-KRAS G12D, HIS-SOS1cat, EDA-GTP-DY-647P1; compound 128 pM to 10 µM; read-out: SOS-catalyzed nucleotide exchange assay (IC50 range, Grade)
- Protocol: SOS1 activity was measured by SOS1-mediated GTP loading quantification of KRAS^G12D. GTP-loaded KRAS^G12D was detected by HTRF (Homogeneous Time Resolved Fluorescence) using anti-GST terbium (Cisbio, France) as a donor and a fluorescence GTP analogue (EDA-GTP-DY-647P1, [DY-647P1-labeled 2'/3'-O-(2-aminoethyl-carbamoyl)guanosine-5'-triphosphate (Jena bioscience, Germany)]) as an acceptor. […]

Query: Would you mind telling me what IC50 value was observed for COc1cccc(-n2nc(C(=O)N[C@H](C)c3cc(N)cc(C(F)(F)F)c3)ccc2=O)c1 ?
Result: < 1000 nM

Query: Same question, C[C@@H](NC(=O)c1ccc(=O)n(-c2ccccc2)c1)c1cc(N)cc(C(F)(F)F)c1 this time
Result: < 1000 nM

Query: Same question, C[C@@H](NC(=O)c1ccc(=O)n(-c2ccccc2)n1)c1cccc(Br)c1 this time
Result: 1000 to 10000 nM

Query: Same question, CC(=O)Nc1cccc(-n2cc(C(=O)N[C@H](C)c3cc(N)cc(C(F)(F)F)c3)ccc2=O)c1 this time
Result: < 1000 nM

Query: Same question, C[C@@H](NC(=O)c1ccc(=O)n(-c2cccc(C(=O)N(C)C)c2)n1)c1cc(N)cc(C(F)(F)F)c1 this time
Result: < 1000 nM

Query: Same question, C[C@@H](NC(=O)c1ccc(=O)n(-c2ccncc2)n1)c1cc(N)cc(C(F)(F)F)c1 this time
Result: < 1000 nM

Query: Same question, COCc1ccccc1-n1nc(C(=O)N[C@H](C)c2cc(N)cc(C(F)(F)F)c2)ccc1=O this time
Result: 1000 to 10000 nM

Query: Same question, CNCc1ccc(Cl)cc1-c1cnc([C@@H](C)NC(=O)c2ccc(=O)n(-c3ccccc3F)n2)s1 this time
Result: < 1000 nM

Query: Same question, C[C@@H](NC(=O)c1ccc(=O)n(-c2cncc(-c3cnnn3C)c2)n1)c1cccc(C(F)F)c1F this time
Result: < 1000 nM

Query: Same question, C[C@@H](NC(=O)c1ccc(=O)n(-c2cccc(-c3ccnn3C(F)F)c2)n1)c1cccc(C(F)(F)CO)c1F this time
Result: < 1000 nM

Query: Same question, C[C@@H](NC(=O)c1ccc(=O)n(-c2ccccc2F)n1)c1cc(N)cc(C(F)(F)F)c1 this time
Result: < 1000 nM

Query: Same question, C[C@@H](NC(=O)c1ccc(=O)n(-c2ccccc2)n1)c1cccc(C(F)(F)CO)c1 this time
Result: < 1000 nM

Query: Same question, C[C@@H](NC(=O)c1ccc(=O)n(-c2cccnc2F)c1)c1cc(N)cc(C(F)(F)F)c1 this time
Result: > 10000 nM

Query: Same question, COc1ccc(-n2nc(C(=O)N[C@H](C)c3cccc(C(F)(F)CO)c3F)ccc2=O)cc1 this time
Result: < 1000 nM

Query: Same question, C[C@@H](NC(=O)c1ccc(=O)n(-c2ccccc2)n1)c1cccc(S(C)(=O)=O)c1 this time
Result: 1000 to 10000 nM

Query: Same question, Cc1cccc([C@@H](C)NC(=O)c2ccc(=O)n(-c3ccccc3)n2)c1 this time
Result: > 10000 nM

* * *

- experimentalSystem: KRAS^G12C::SOS1 (Homo sapiens, UniProt Q07889)
- measurementNotes: KRAS G12C::SOS1 protein-protein interaction (PPI) inhibition assay (HTRF binding kit)
experimentalReadout: IC50

Query: Would you mind telling me what IC50 value was observed for C[C@@H](NC(=O)c1ccc(=O)n(-c2cccc(C(N)=O)c2)n1)c1cc(N)cc(C(F)(F)F)c1 [Example 252] ?
Result: < 1 µM

Query: Same question, C[C@@H](NC(=O)c1nn(-c2ccccc2)c(=O)cc1-c1ccccc1)c1cc(N)cc(C(F)(F)F)c1 [Example 368] this time
Result: < 1 µM

Query: Same question, CNCc1ccc(F)cc1-c1ccc([C@@H](C)NC(=O)c2ccc(=O)n(-c3cccc(-c4cnnn4C)c3)n2)s1 [Example 413] this time
Result: < 1 µM

Query: Same question, C[C@@H](NC(=O)c1ccc(=O)n(-c2cncc(-c3cnnn3C)c2)n1)c1cccc(C(F)(F)CF)c1F [Example B09] this time
Result: < 1 µM

Query: Same question, C[C@@H](NC(=O)c1ccc(=O)n(-c2cc(-c3cnnn3C)ccc2F)n1)c1cccc(C(F)(F)CO)c1F [Example 372] this time
Result: < 1 µM

Query: Same question, CNCc1ccc(F)cc1-c1ccc([C@@H](C)NC(=O)c2ccc(=O)n(-c3cccc(C(=O)N(C)C)c3F)n2)s1 [Example 297] this time
Result: < 1 µM

Query: Same question, Cc1c([C@@H](C)NC(=O)c2ccc(=O)n(-c3ccccc3F)n2)cccc1C(F)(F)CO [Example 246] this time
Result: < 1 µM

Query: Same question, C[C@@H](NC(=O)c1ccc(=O)n(-c2cccnc2F)c1)c1cc(N)cc(C(F)(F)F)c1 [Example 148] this time
Result: > 10 µM

Query: Same question, C[C@@H](NC(=O)c1ccc(=O)n(-c2ccccc2F)n1)c1cc(N)cc(C#N)c1F [Example 216] this time
Result: 1 to 10 µM

Query: Same question, C[C@@H](NC(=O)c1ccc(=O)n(C)n1)c1cc(N)cc(C(F)(F)F)c1 [Example 228] this time
Result: < 1 µM

Query: Same question, C[C@H](NC(=O)c1ccc(=O)n(-c2ccccc2F)n1)c1cccc(F)c1Cl [Example 262] this time
Result: 1 to 10 µM

Query: Same question, C[C@@H](NC(=O)c1nn(-c2ccccc2F)c(=O)cc1NS(C)(=O)=O)c1cc(N)cc(C(F)(F)F)c1 [Example 384] this time
Result: < 1 µM

Query: Same question, COc1cc(-n2nc(C(=O)N[C@H](C)c3cccc(C(F)(F)CO)c3F)ccc2=O)ccn1 [Example 193] this time
Result: < 1 µM

Query: Same question, COCc1cccc(-n2nc(C(=O)N[C@H](C)c3cc(N)cc(C(F)(F)F)c3)ccc2=O)c1 [Example 205] this time
Result: < 1 µM

Query: Same question, Cc1cc(C(=O)N[C@H](C)c2cc(N)cc(C(F)(F)F)c2F)nn(-c2cncc(-c3cnnn3C)c2)c1=O [Example B03] this time
Result: < 1 µM
